Molecular target: Trypanosoma cruzi glucokinase (TcGlcK) (Trypanosoma cruzi, UniProt Q4E4E1);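 further: compounds supplied as 10 mM DMSO stocks (100 µL format), with a non-inhibitory compound run alongside for comparison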
Sequence (Q4E4E1 1-376): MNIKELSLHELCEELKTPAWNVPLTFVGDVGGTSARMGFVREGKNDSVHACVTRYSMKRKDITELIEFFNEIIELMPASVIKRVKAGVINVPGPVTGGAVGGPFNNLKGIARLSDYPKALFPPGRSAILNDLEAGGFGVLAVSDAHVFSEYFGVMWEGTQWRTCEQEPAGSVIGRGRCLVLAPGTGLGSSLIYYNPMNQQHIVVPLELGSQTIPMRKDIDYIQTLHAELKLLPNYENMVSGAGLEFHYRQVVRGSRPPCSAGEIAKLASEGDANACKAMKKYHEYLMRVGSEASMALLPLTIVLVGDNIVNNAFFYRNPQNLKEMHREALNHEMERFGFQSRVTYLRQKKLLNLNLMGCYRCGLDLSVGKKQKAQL
quantity_kind: Ki

>  <compound>
Cc1cc2c(c(O)c1-c1c(C)cc3c(c1O)C(C=C1C(=O)NC(=O)NC1=O)C(=O)C(O)=C3C(C)C)C(C=C1C(=O)NC(=O)NC1=O)C(=O)C(O)=C2C(C)C (centres unmarked)

>  <endpoint_result>
10.6 µM

$$$$
>  <compound>
Cc1cc2c(c(O)c1-c1c(C)cc3c(c1O)/C(=C/NCSN)C(=O)C(O)=C3C(C)C)/C(=C/NCSN)C(=O)C(O)=C2C(C)C (atropisomer, axis not shown)

>  <endpoint_result>
30.1 µM

$$$$
>  <compound>
Cc1cc2c(c(O)c1-c1c(C)cc3c(c1O)/C(=C/Nc1cccc(C(=C4C=CC(=N)C=C4)c4ccc(N)cc4)c1)C(=O)C(O)=C3C(C)C)/C(=C/Nc1cccc(C(=C3C=CC(=N)C=C3)c3ccc(N)cc3)c1)C(=O)C(O)=C2C(C)C

>  <endpoint_result>
3.9 µM

$$$$
>  <compound>
CCOC(=O)Nc1ccc(/N=C/c2c(O)c(O)c(C(C)C)c3cc(C)c(-c4c(C)cc5c(C(C)C)c(O)c(O)c(/C=N/c6ccc(NC(=O)OCC)cc6)c5c4O)c(O)c23)cc1

>  <endpoint_result>
4710 µM

$$$$
>  <compound>
Cc1cc2c(C(C)C)c(O)c(O)c(/C=N/Nc3nc4ccccc4[nH]c3=O)c2c(O)c1-c1c(C)cc2c(C(C)C)c(O)c(O)c(/C=N/Nc3nc4ccccc4[nH]c3=O)c2c1O

>  <endpoint_result>
3.83 µM

$$$$

----------
The following are reported Ki results, target or system UniProt Q4E4E1.

>  <compound>
COc1ccc(OCC/N=C/c2c(O)c(O)c(C(C)C)c3cc(C)c(-c4c(C)cc5c(C(C)C)c(O)c(O)c(/C=N/CCOc6ccc(OC)cc6)c5c4O)c(O)c23)cc1 (atropisomer, axis not shown) [Inhibitor 40]

>  <target_or_system>
UniProt Q4E4E1

>  <unit_label>
µM

>  <Ki>
29.4

$$$$
>  <compound>
Cc1cc(C)cc(OCC(=O)C/N=C/c2c(O)c(O)c(C(C)C)c3cc(C)c(-c4c(C)cc5c(C(C)C)c(O)c(O)c(/C=N/NC(=O)COc6cc(C)cc(C)c6)c5c4O)c(O)c23)c1 [Inhibitor 3]

>  <target_or_system>
UniProt Q4E4E1

>  <unit_label>
µM

>  <Ki>
60.4

$$$$
>  <compound>
CCCSCC/N=C/c1c(O)c(O)c(C(C)C)c2cc(C)c(-c3c(C)cc4c(C(C)C)c(O)c(O)c(/C=N/CCSCC)c4c3O)c(O)c12 (atropisomer, axis not shown) [Inhibitor 83]

>  <target_or_system>
UniProt Q4E4E1

>  <unit_label>
µM

>  <Ki>
84.5

$$$$
>  <compound>
Cc1cc2c(C(C)C)c(O)c(O)c(/C=N/c3ccc(C(O)C(O)CO)cc3)c2c(O)c1-c1c(C)cc2c(C(C)C)c(O)c(O)c(/C=N/c3ccc(C(O)C(O)CO)cc3)c2c1O (stereo not shown) [Inhibitor 48]

>  <target_or_system>
UniProt Q4E4E1

>  <unit_label>
µM

>  <Ki>
274

$$$$
>  <compound>
CC1=C(C2=C(C)C(=O)c3c(c(C=O)c(O)c(O)c3C(C)C)C2=O)C(=O)c2c(C=O)c(O)c(O)c(C(C)C)c2C1=O [Inhibitor 31]

>  <target_or_system>
UniProt Q4E4E1

>  <unit_label>
µM

>  <Ki>
960

$$$$
>  <compound>
Cc1cc2c(c(O)c1-c1c(C)cc3c(c1O)/C(=C/NNC(=O)c1ccncc1)C(=O)C(O)=C3C(C)C)/C(=C/NNC(=O)c1ccncc1)C(=O)C(O)=C2C(C)C (atropisomer, axis not shown) [Inhibitor 26]

>  <target_or_system>
UniProt Q4E4E1

>  <unit_label>
µM

>  <Ki>
213

$$$$
>  <compound>
Cc1cc2c(c(O)c1-c1c(C)cc3c(c1O)/C(=C/Nc1ccc(S(N)(=O)=O)cc1)C(=O)C(O)=C3C(C)C)/C(=C/Nc1ccc(S(N)(=O)=O)cc1)C(=O)C(O)=C2C(C)C (atropisomer, axis not shown) [Inhibitor 25]

>  <target_or_system>
UniProt Q4E4E1

>  <unit_label>
µM

>  <Ki>
74.3

$$$$
>  <compound>
CCCC(CCC)/N=C/c1c(O)c(O)c(C(C)C)c2cc(C)c(-c3c(C)cc4c(C(C)C)c(O)c(O)c(/C=N/C(CCC)CCC)c4c3O)c(O)c12 (atropisomer, axis not shown) [Inhibitor 46]

>  <target_or_system>
UniProt Q4E4E1

>  <unit_label>
µM

>  <Ki>
99.1

$$$$
>  <compound>
Cc1cc2c(c(O)c1-c1c(C)cc3c(c1O)/C(=C/Nc1ccccc1C(=O)O)C(=O)C(O)=C3C(C)C)/C(=C/Nc1ccccc1C(=O)O)C(=O)C(O)=C2C(C)C (atropisomer, axis not shown) [Inhibitor 15]

>  <target_or_system>
UniProt Q4E4E1

>  <unit_label>
µM

>  <Ki>
1.2

$$$$
>  <compound>
Cc1cc2nc[nH]c2c(/N=C/c2c(O)c(O)c(C(C)C)c3cc(C)c(-c4c(C)cc5c(C(C)C)c(O)c(O)c(/C=N/c6c(C)c(C)cc7nc[nH]c67)c5c4O)c(O)c23)c1C (atropisomer, axis not shown) [Inhibitor 86]

>  <target_or_system>
UniProt Q4E4E1

>  <unit_label>
µM

>  <Ki>
2.58

$$$$
